- Test Protocol: Mouse PK studies (plasma and liver exposure)
- Type: in vivo, C57BL/6 mice
- Measurement Context: male, C57BL/6N, mouse, plasma; mice; read-out: in vivo clearance
Experimental Readout: clearance (mL/min/kg)

>>> experimental_value("Nc1ccc(C(=O)Nc2cc(F)c(F)c(F)c2)cc1S(N)(=O)=O")
10

====

- Test Protocol: Mouse PK studies (plasma and liver exposure)
- Type: in vivo, C57BL/6 mice
- Measurement Context: male, C57BL/6N, mouse, plasma, po, 100 mg/kg, 6 Hours, PO 100 mpk in 0.5% methocell, individual subject; read-out: Plasma concentrations
Experimental Readout: concentration at 6 h (µM)

>>> experimental_value("Nc1ccc(C(=O)Nc2cc(F)c(F)c(F)c2)cc1S(N)(=O)=O")
11.9
